assaySummary: TOR pathway LAP4-GFP level changes – S. cerevisiae, multiplex flow cytometry, primary screen (AID 1873)
experimentalSetup: S. cerevisiae LAP4-GFP expression, 3 h, at 10 µM, hits give high values
Inconclusive results are not listed.

- compound: "CC1=NN(c2ccccc2)C(=O)C1"
  GFP response vs DMSO (%): 99.1
- compound: "COC(=O)[C@H]1[C@H]2C[C@@H]3c4[nH]c5cc(OC)ccc5c4CCN3C[C@H]2C[C@@H](OC(=O)c2ccc(N)cc2)[C@@H]1OC"
  GFP response vs DMSO (%): 94
- compound: "CN1CCc2c(n(CC(O)CN(CCO)CCO)c3ccccc23)C1=O (stereo not given)"
  GFP response vs DMSO (%): 82
- compound: "Cc1ccc2[nH]c3c(c2c1)CCNC3=O"
  GFP response vs DMSO (%): 91.3
- compound: "O=C(COc1ccc2c(-c3ccccc3)cc(=O)oc2c1)NCc1cccs1"
  GFP response vs DMSO (%): 102
